Target: Myotonin-protein kinase (Homo sapiens)
Sequence (whole entry): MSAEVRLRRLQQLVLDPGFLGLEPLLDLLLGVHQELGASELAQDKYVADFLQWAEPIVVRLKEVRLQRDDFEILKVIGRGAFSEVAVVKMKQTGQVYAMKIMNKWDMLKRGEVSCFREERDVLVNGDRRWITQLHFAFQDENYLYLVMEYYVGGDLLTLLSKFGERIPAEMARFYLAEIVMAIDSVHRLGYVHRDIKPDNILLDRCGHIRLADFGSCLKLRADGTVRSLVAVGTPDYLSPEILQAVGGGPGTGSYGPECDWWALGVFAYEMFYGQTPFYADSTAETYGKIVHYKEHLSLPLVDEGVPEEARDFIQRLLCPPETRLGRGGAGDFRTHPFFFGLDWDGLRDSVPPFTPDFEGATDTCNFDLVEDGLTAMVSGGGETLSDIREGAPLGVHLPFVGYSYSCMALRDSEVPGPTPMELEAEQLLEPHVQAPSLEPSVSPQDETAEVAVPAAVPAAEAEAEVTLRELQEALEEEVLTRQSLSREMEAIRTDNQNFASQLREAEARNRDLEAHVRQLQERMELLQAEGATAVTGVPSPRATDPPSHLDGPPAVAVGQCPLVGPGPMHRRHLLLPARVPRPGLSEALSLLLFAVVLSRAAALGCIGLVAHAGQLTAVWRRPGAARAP
Just a reminder that ties go to Not met: only ΔTm strictly below 1 °C counts as Met.

{"columns": ["molecule", "cat"],
 "data": [
  ["Nc1cc2ncnc(Nc3cccc(Br)c3)c2cc1N", "Met"],
  ["N#CCCc1ccc2c(c1)-c1[nH]c3ccc([N+](=O)[O-])cc3c1CC(=O)N2 [ALSTERPAULLONE 2]", "Not met"],
  ["COc1ccc(S(=O)(=O)N(CCO)c2ccccc2CN(C)C/C=C/c2ccc(Cl)cc2)cc1", "Met"],
  ["Cc1ccc(NC(=O)c2ccc(CN3CCN(C)CC3)cc2)cc1Nc1nccc(-c2cccnc2)n1", "Met"],
  ["CC(C)(C)n1nc(-c2cccc3ccccc23)c2c(N)ncnc21", "Not met"],
  ["Brc1c(Br)c(Br)c2[nH]nnc2c1Br [TETRABROMOBENZOTRIAZOLE]", "Not met"],
  ["CN(C)S(=O)(=O)c1ccc2c(c1)/C(=C/c1cc3c([nH]1)CCCC3)C(=O)N2", "Met"],
  ["O=C1c2ccccc2-[n+]2ccc3c([nH]c4ccccc43)c21 [FASCAPLYSIN CHLORIDE]", "Met"],
  ["CC(C)n1cnc2c(NCc3ccccc3)nc(NCCCO)nc21", "Met"],
  ["O=C1c2ccccc2-c2n[nH]c3cccc1c23", "Met"],
  ["O=S(=O)(c1cccc2c(Cl)cccc12)N1CCCNCC1", "Met"],
  ["O=S(=O)(NCCNC/C=C/c1ccc(Br)cc1)c1cccc2cnccc12", "Met"],
  ["O=C(O)Cc1ccc(O)c([N+](=O)[O-])c1", "Not met"],
  ["CC(C)(C)c1nc2c3ccc(F)cc3c3c(=O)[nH]ccc3c2[nH]1", "Met"],
  ["O=C(O)c1cc(N(Cc2ccccc2O)Cc2cc(O)ccc2O)ccc1O [LAVENDUSTIN A]", "Met"],
  ["O=C1Nc2ccccc2/C1=C1/Nc2ccccc2/C1=N\\O", "Not met"],
  ["NCCNS(=O)(=O)c1cccc2c(Cl)cccc12", "Met"],
  ["Oc1cc(O)cc(/C=C/c2ccc(O)c(O)c2)c1 [PICEATANNOL]", "Met"],
  ["CC(C)[C@H](CO)Nc1nc(Nc2cc(N)cc(Cl)c2)c2ncn(C(C)C)c2n1 [AMINOPURVALANOL]", "Not met"],
  ["NS(=O)(=O)c1ccc(Nc2nc(OCC3CCCCC3)c3nc[nH]c3n2)cc1", "Not met"],
  ["C/C(O)=C(\\C#N)C(=O)Nc1cc(Br)ccc1Br", "Met"],
  ["CCOC(=O)c1c(C)[nH]c(/C=C2\\C(=O)Nc3ccccc32)c1C", "Met"],
  ["O=C1Nc2ccc(S(=O)(=O)O)cc2/C1=C1/Nc2ccccc2/C1=N\\O", "Not met"],
  ["O=[N+]([O-])c1ccc(-c2nc(-c3ccc(F)cc3)c(-c3ccncc3)[nH]2)cc1", "Met"],
  ["CN(C)C[C@@H]1CCn2cc(c3ccccc32)C2=C(C(=O)NC2=O)c2cn(c3ccccc23)CCO1 [RUBOXISTAURIN]", "Not met"],
  ["O=C1NC(=O)C(c2c[nH]c3ccccc23)=C1c1c[nH]c2ccccc12", "Not met"],
  ["CN1CCC(Nc2ncc3ncnc(Nc4ccc(F)c(Cl)c4)c3n2)CC1 [FALNIDAMOL]", "Not met"],
  ["CCOc1cc(/C=C(\\C#N)C(N)=O)cc(CSc2ccccc2)c1O", "Met"],
  ["NC1=N/C(=C2/CCNC(=O)c3[nH]ccc32)C(=O)N1 [DEBROMOHYMENIALDISINE]", "Not met"],
  ["CCN1/C(=C/C(C)=O)Sc2ccc(OC)cc21", "Not met"],
  ["O=C(O)/C=C/c1cc(CO)ccc1CO", "Met"],
  ["O=c1c(O)c(-c2ccc(O)c(O)c2)oc2cc(O)cc(O)c12 [QUERCETIN]", "Not met"],
  ["Oc1ccc(-c2nc(-c3ccc(F)cc3)c(-c3ccncc3)[nH]2)cc1", "Met"],
  ["CCN(CC)CCNC(=O)c1c(C)[nH]c(/C=C2\\C(=O)Nc3ccc(F)cc32)c1C", "Not met"],
  ["N#C/C(=C(/N)Sc1ccc(N)cc1)c1ccccc1C(F)(F)F", "Met"],
  ["O=C(O)c1cc(NCc2cc(O)ccc2O)ccc1O", "Met"],
  ["CCN(CC)CCNC(=O)c1c(C)[nH]c(/C=C2\\C(=O)Nc3ccc(Cl)cc32)c1C [SU-11652]", "Not met"],
  ["O=c1sn(Cc2ccccc2)c(=S)n1Cc1ccccc1", "Met"],
  ["CC(C)(C)c1cc(C=C2C(=O)C=CC2=O)cc(C(C)(C)C)c1O", "Not met"],
  ["O=C1Nc2cc(Br)ccc2/C1=C1/Nc2ccccc2/C1=N\\O", "Met"],
  ["COc1ccc(CNC(=O)Nc2ncc([N+](=O)[O-])s2)cc1", "Met"]
]}
